Listing of recorded composite z-score by entry.
target: Carbonic anhydrase 2 (Homo sapiens) (UniProt P00918); assay: compounds binding carbonic anhydrase 2 – biochemical, small-molecule microarray, Alexa647-labelled CAII, profiling panel (AID 1122); details: CAII-A647 binding fluorescence, higher = more signal

>  <compound>
COC(=O)C(CC#Cc1ccc2c(c1)[C@]1(C(=O)N2)[C@H](c2ccc(OCCO)cc2)N2[C@H](c3ccccc3)[C@H](c3ccccc3)OC(=O)[C@H]2[C@@H]1C(=O)O)C(=O)OC

>  <composite z-score>
0.724

$$$$
>  <compound>
COC(=O)[C@@]1(Cc2ccccc2)[C@H]2c3cc(C(=O)N(C)C)n(Cc4ccc(O)c(OC)c4)c3C[C@H]2CN1C(=O)c1ccccc1

>  <composite z-score>
0.759

$$$$
>  <compound>
C[C@@H]1ON(c2ccccc2)[C@H](c2ccccc2)[C@H]1C(=O)N1C(=O)OC[C@H]1Cc1ccccc1

>  <composite z-score>
0.303

$$$$
>  <compound>
COCC1=C([C@H](O)CCc2ccccc2)[C@H](CO)[C@@H]2C(=O)N(C)C(=O)[C@@H]2C1

>  <composite z-score>
0.426

$$$$
>  <compound>
CC1(C)[C@@H]2CC(C(O)C3C=CC4C(=O)N(c5ccccc5)C(=O)C4N3Nc3ccccc3F)=C[C@@H]1C2 (stereo partly specified)

>  <composite z-score>
0.571

$$$$
>  <compound>
CC(C)N1CC=CC23O[C@@H]4C=CCOC(=O)[C@@H]4[C@H]2C(=O)N(CCCCCCO)[C@@H]3C1=O (stereo partly specified)

>  <composite z-score>
0.923

$$$$
>  <compound>
CN1C(=O)C2C=CC(C(O)COCc3ccccc3)N(Nc3ccccc3)C2C1=O (stereo unspecified)

>  <composite z-score>
0.81

$$$$
>  <compound>
COCCOC(=O)N1C(=O)[C@@]2(c3cc(C#CC4(O)CCCCCC4)ccc31)[C@H](C(=O)NC[C@H](O)c1ccccc1)[C@H]1C(=O)O[C@H](c3ccccc3)[C@H](c3ccccc3)N1[C@@H]2c1ccc(OCCO)cc1

>  <composite z-score>
0.495

$$$$
>  <compound>
COc1ccc(CCNC(=O)[C@@H]2c3ccccc3C(=O)N(Cc3ccccc3C(F)(F)F)[C@H]2c2ccc(CO)cc2)cc1

>  <composite z-score>
0.466

$$$$
>  <compound>
COc1ccc([Si](C)(C)[C@@H]2[C@@H](CCO)O[C@]3(C(=O)N(Cc4cccc(N5C(=O)COc6ccccc65)c4)c4ccccc43)[C@H]2C)cc1

>  <composite z-score>
0.163

$$$$
>  <compound>
O=C1OCCC=C[C@H]2OC34C=CCN(Cn5nnc6ccccc65)C(=O)[C@H]3N(CCCCCO)C(=O)[C@@H]4C12 (stereo partly specified)

>  <composite z-score>
0.87

$$$$
>  <compound>
C[C@H]1ON(c2ccccc2)[C@@H](c2ccccc2)[C@@H]1C(=O)N1C(=O)OC[C@@H]1c1ccccc1

>  <composite z-score>
0.259

$$$$
>  <compound>
COc1ccc([Si](C)(C)[C@H]2[C@H](CCn3cc(CCO)nn3)O[C@@]3(C(=O)N(Cc4cccc(N5C(=O)c6cccc7cccc5c67)c4)c4ccccc43)[C@@H]2C)cc1

>  <composite z-score>
0.584

$$$$
>  <compound>
COc1cc(NN2C(C(O)c3ccc(I)cc3)C=CC3C(=O)N(C)C(=O)C32)cc(OC)c1OC (stereo unspecified)

>  <composite z-score>
0.783

$$$$
>  <compound>
N#Cc1ccc(NN2C(C(O)c3ccccc3)C=CC3C(=O)N(c4ccccc4)C(=O)C32)cc1 (stereo unspecified)

>  <composite z-score>
0.809

$$$$
>  <compound>
CC(C)c1ccc(NN2C(C(O)c3cccs3)C=CC3C(=O)N(c4ccccc4)C(=O)C32)cc1 (stereo unspecified)

>  <composite z-score>
0.76

$$$$
>  <compound>
C[N+](C)(C)CCCC[C@@H]1NC(=O)[C@@H]2C[C@H](C(=O)NCCCCCNC(=O)CS)[C@H](c3cccc(OCCO)c3)N2C1=O

>  <composite z-score>
0.399

$$$$
>  <compound>
CCOC(=O)C1=CCC(c2cccc(Cl)c2)O1 (stereo unspecified)

>  <composite z-score>
0.181

$$$$
>  <compound>
O=C(C=C(CC(O)c1cccc(Cl)c1)OCCF)OCCF (stereo unspecified)

>  <composite z-score>
0.0119

$$$$
>  <compound>
CCCCCCC#C[Si](O[C@H](c1ccccc1)c1cn(Cc2cccc(Cl)c2)nn1)(C(C)C)C(C)C

>  <composite z-score>
0.205

$$$$
>  <compound>
O=C1OCC=C[C@H]2OC34C=CCN(CCN5CCOCC5)C(=O)[C@H]3N(CCCCCO)C(=O)[C@@H]4[C@@H]12 (stereo partly specified)

>  <composite z-score>
0.829

$$$$
>  <compound>
N#Cc1ccc(NN2C(C(O)c3ccco3)C=CC3C(=O)N(c4ccccc4)C(=O)C32)cc1 (stereo unspecified)

>  <composite z-score>
0.89

$$$$
>  <compound>
Cc1ccc(-c2cccc(=O)o2)cc1

>  <composite z-score>
-0.501

$$$$
>  <compound>
[N-]=[N+]=Nc1ccccc1C[C@]1(C(=O)NCCN2CCOCC2)N=C(c2ccc(OCCCO)cc2)O[C@H]1c1ccccc1N=[N+]=[N-]

>  <composite z-score>
0.584

$$$$
>  <compound>
O=C1N(CCS(=O)(=O)c2ccccc2)Cc2ccccc2C[C@@]12COC(c1ccc(OCCCO)cc1)=N2

>  <composite z-score>
0.585

$$$$
>  <compound>
O=c1c2ccc(Br)cc2nc(-c2ccccc2)n1Cc1cccc(O)c1

>  <composite z-score>
0.711

$$$$
>  <compound>
C[N+](C)(C)CCCCNC(=O)[C@H]1C[C@H]2C(=O)NCC(=O)N2[C@H]1c1ccc(O)cc1

>  <composite z-score>
0.568

$$$$
>  <compound>
COCCOC(=O)N1C(=O)[C@@]2(c3cc(C#CCNC(N)=O)ccc31)[C@H](c1ccc(OCCO)cc1)N1[C@H](c3ccccc3)[C@H](c3ccccc3)OC(=O)[C@H]1[C@@H]2C(=O)N1CCN(c2ncccn2)CC1

>  <composite z-score>
0.2

$$$$
>  <compound>
OCCCC1=CC(c2cccs2)N(Cc2cccc(OC(F)(F)F)c2)CC1 (stereo unspecified)

>  <composite z-score>
0.389

$$$$
>  <compound>
C=C(/C(=C/C[C@@H](OC(=O)c1ccncc1)c1ccccc1OCCO)c1cnc2ccccc2c1)C(C)C

>  <composite z-score>
0.935

$$$$
>  <compound>
O=C1NC(=O)C2C1C=CC(C(O)CCc1ccccc1)N2Nc1ccccn1 (stereo unspecified)

>  <composite z-score>
0.894

$$$$

----------
Listing of recorded z-score by entry.
experiment: growth modulation of vineyard yeast isolate – strain RM11-1a, OD600, basal, 24 h, primary screen (AID 1177);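 further: cultures grown under basal conditions with no added stressor; test concentration not given here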; settings: S. cerevisiae RM11-1a growth, OD600, 24 h; higher = more signal, called active from +8 up or from −8 down
observation.type: z-score

>  <molecule>
COCCCNC(=O)[C@@]1(Cc2ccccc2)COC(c2ccc(OCCCO)cc2)=N1

>  <observation.type>
z-score

>  <recorded.number>
-0.031

$$$$
>  <molecule>
O=C(C=C(CC(O)c1cccc(Cl)c1)OCCF)OCCF (stereo not given)

>  <observation.type>
z-score

>  <recorded.number>
-1.33

$$$$
>  <molecule>
COC(=O)[C@@]1(Cc2ccccc2N=[N+]=[N-])N=C(c2ccc(OCCCO)cc2)O[C@H]1c1ccccc1

>  <observation.type>
z-score

>  <recorded.number>
1.76

$$$$
>  <molecule>
NC(=O)NCC#Cc1ccc2c(c1)[C@]1(C(=O)N2)[C@H](c2ccc(OCCO)cc2)N2[C@H](c3ccccc3)[C@H](c3ccccc3)OC(=O)[C@H]2[C@@H]1C(=O)N1CCCCCCC1

>  <observation.type>
z-score

>  <recorded.number>
2.58

$$$$
>  <molecule>
C=CC[C@]1(C(=O)NCC(O)CO)N=C(c2ccc(OCCCO)cc2)O[C@H]1c1ccccc1N=[N+]=[N-] (stereo not given in full)

>  <observation.type>
z-score

>  <recorded.number>
0.329

$$$$
>  <molecule>
COCCCNC(=O)[C@@H]1c2ccccc2C(=O)N(c2ccc(C)cn2)[C@H]1c1ccc(CO)cc1

>  <observation.type>
z-score

>  <recorded.number>
0.169

$$$$
>  <molecule>
NC(=O)[C@@H]1[C@H]2C(=O)O[C@H](c3ccccc3)[C@H](c3ccccc3)N2[C@H](c2ccccc2OCCO)[C@@]12C(=O)Nc1ccc(C#CCCO)cc12

>  <observation.type>
z-score

>  <recorded.number>
0.895

$$$$
>  <molecule>
COC(=O)[C@@]1(Cc2ccc(OC)cc2)[C@H]2c3cc(C(=O)N(C)C)n(Cc4cc(C)n(C)n4)c3C[C@H]2CN1C(=O)c1ccccc1

>  <observation.type>
z-score

>  <recorded.number>
0.949

$$$$
>  <molecule>
COC(=O)[C@@]1(Cc2ccc(OC)cc2)[C@H]2c3cc(C(=O)N4CCCC4)n(Cc4ccc(C)o4)c3C[C@H]2CN1C(=O)c1ccccc1

>  <observation.type>
z-score

>  <recorded.number>
-1.57

$$$$
>  <molecule>
COC(=O)C(CC#Cc1ccc2c(c1)[C@]1(C(=O)N2)[C@H](c2ccc(O)cc2)N2[C@H](c3ccccc3)[C@H](c3ccccc3)OC(=O)[C@H]2[C@@H]1C(=O)O)C(=O)OC

>  <observation.type>
z-score

>  <recorded.number>
-0.316

$$$$
>  <molecule>
CC(C)C[C@@H]1NC(=O)[C@@H]2C[C@H](C(=O)NCCCC[N+](C)(C)C)[C@H](c3cccc(OCCO)c3)N2C1=O

>  <observation.type>
z-score

>  <recorded.number>
0.958

$$$$
>  <molecule>
NCCCCCCNC(=O)[C@H]1C[C@H]2C(=O)N3CCC[C@H]3C(=O)N2[C@H]1c1ccc(O)cc1

>  <observation.type>
z-score

>  <recorded.number>
-1.09

$$$$
>  <molecule>
C=C(/C(=C/C[C@@H](OC(C)=O)c1ccccc1OCCO)c1cnc2ccccc2c1)C(C)C

>  <observation.type>
z-score

>  <recorded.number>
0.29

$$$$
>  <molecule>
Cc1ccc(F)cc1S(=O)(=O)N[C@@H]1CCN(C(=O)c2ccc(OC(C)C)cc2)C1

>  <observation.type>
z-score

>  <recorded.number>
-0.455

$$$$
>  <molecule>
C=C(C)[C@@H]1CC=C(C(O)C2C=CC3C(=O)N(C4CCCCC4)C(=O)C3N2Nc2ccc(OC)cc2)CC1 (stereo not given in full)

>  <observation.type>
z-score

>  <recorded.number>
0.0587

$$$$
